The measured values listed here are drawn from patent US20220177583A1.

- assay.system: T1, human CLDN6, endogenously expressed on cancer cell lines (human, UniProt P56747 1-220)
- T1 construct: also called Endogenous CLDN6+; CLDN6 on ARK2, OVCA429, UMUC4 cells
- T1 sequence: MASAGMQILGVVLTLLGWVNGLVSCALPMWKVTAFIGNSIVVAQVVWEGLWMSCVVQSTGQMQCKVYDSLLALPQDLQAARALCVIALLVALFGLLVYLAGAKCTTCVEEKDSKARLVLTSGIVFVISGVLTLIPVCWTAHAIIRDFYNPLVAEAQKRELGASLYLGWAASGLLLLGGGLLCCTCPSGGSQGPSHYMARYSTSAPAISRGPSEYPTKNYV
- procedure.text: FACS, ARK2 cells, 0.3 ug Ab
Measured FACS signal values are reported for all entries that follow.
measured.parameter: FACS signal

[[record]]
binder = "AB4-5 (antibody, V domains shown, Humanized; also called humanized AB 4-5) VH: QVQLVQSGAEVKKPGASVKMSCKASGYTFTSYTMHWIRQAPGQGQEWIGYINPSSTYTHYAQKFQGRATLTADTSTSTAYMELSSLRSEDTAVYYCSRGELGGFAYWGQGTLVTVSS VL: DVVMTQSPLSLPVTLGQPASISCRSSQSLVHSDGNTYLNWYQQRPGQSPRLLIYKVSNRFSGVPDRFSGSGSGTDFTLKISRVEAEDVGVYYCSQSTHVPYTFGQGTKLEIK"
val = 967

[[record]]
binder = "AB4-11 (antibody, V domains shown, Humanized; full-length IgG; see note of AB4-8; also called humanized AB 4-11) VH: QVQLVQSGAEVKKPGASVKMSCKASGYTFTSYTMHWIRQAPGQGLEWIGYINPSSTYTHYIKKFKDRATLTADKSTSTAYMELSSLRSEDTAVYYCSRGELGGFAYWGQGTLVTVSS VL: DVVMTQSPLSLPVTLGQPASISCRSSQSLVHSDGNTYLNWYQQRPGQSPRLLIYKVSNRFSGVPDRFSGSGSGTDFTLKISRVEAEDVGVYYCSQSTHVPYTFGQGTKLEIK"
val = 6390

[[record]]
binder = "AB1-7 (antibody, V domains shown, Humanized; also called humanized AB 1-7) VH: QVQLVQSGAEVKKPGASVKMSCKASGYTFTTYTMHWVRQAPGQGLEWIGFINPSSGYTDYAQKFQGRVTLTADTSTSTVYMELSSLRSEDTAVYYCANGDYYVAYWGQGTLVTVSS VL: DIQLTQSPSSLSASVGDRVTMTCTASSSVSSTYFHWYQQKPGKAPKLLIYSTSNLASGVPSRFSGSGSGTDYTLTISSMQPEDAATYYCHQYHRSPLTFGQGTKLEIK"
val = 4440

[[record]]
binder = "AB4-6 (antibody, V domains shown, Humanized; also called humanized AB 4-6) VH: QVQLVQSGAEVKKPGASVKMSCKASGYTFTSYTMHWIRQAPGQGLEWIGYINPSSTYTHYAQKFQGRATLTADKSTSTAYMELSSLRSEDTAVYYCSRGELGGFAYWGQGTLVTVSS VL: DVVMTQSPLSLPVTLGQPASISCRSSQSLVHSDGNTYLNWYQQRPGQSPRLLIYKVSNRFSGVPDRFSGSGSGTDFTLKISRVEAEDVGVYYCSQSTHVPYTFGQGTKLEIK"
val = 3300

[[record]]
binder = "AB1-11 (antibody, V domains shown, Humanized; also called humanized AB1-11; HU-11) VH: QVQLVQSGAEVKKPGASVKMSCKASGYTFTTYTMHWVRQAPGQGLEWIGFINPSSGYTDYAQKFQGRVTLTADKSTSTVYMELSSLRSEDTAVYYCANGDYYVAYWGQGTLVTVSS VL: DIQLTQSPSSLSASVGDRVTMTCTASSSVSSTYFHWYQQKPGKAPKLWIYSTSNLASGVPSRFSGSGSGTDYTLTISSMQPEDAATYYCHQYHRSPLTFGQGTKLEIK"
val = 53900

[[record]]
binder = "AB11-3 (antibody, V domains shown, Humanized; also called humanized AB 11-3) VH: EVQLVESGGGLVQPGGSLRLSCAASGFTFSSFGMHWVRQAPGKGLEWVAYISSDSRTIYYADSVKGRFTISRDNAKNSLYLQMNSLRAEDTAVYYCARDYGRTYEAYWGQGTLVTVSS VL: DIVLTQSPDSLAVSLGERATINCRASKSVSTSGYSYIHWYQQKPGQPPKLLIYLASNLESGVPDRFSGSGSGTDFTLTISSVQAEDVAVYYCQHSRELPLTFGQGTKLELK"
val = 1320

[[record]]
binder = "AB4-9 (antibody, V domains shown, Humanized; full-length IgG; see note of AB4-8; also called humanized AB 4-9) VH: QVQLVQSGAEVKKPGASVKMSCKASGYTFTSYTMHWIRQAPGQGLEWIGYINPSSTYTHYIKKFKDRATLTADTSTSTAYMELSSLRSEDTAVYYCSRGELGGFAYWGQGTLVTVSS VL: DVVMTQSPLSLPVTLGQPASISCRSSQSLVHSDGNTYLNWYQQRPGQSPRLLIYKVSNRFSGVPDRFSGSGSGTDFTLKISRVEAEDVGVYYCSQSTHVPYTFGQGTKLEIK"
val = 3060

[[record]]
binder = "AB3-5 (antibody, V domains shown, Humanized; also called humanized AB 3-5) VH: EVQLLESGGGLVQPGGSMRLSCAASGFTFSNYWMNWVRQAPGKGLEWVAQIRLKSDNYATHYADSVKGRFTISRDDSKNTVYLQMNSLRAEDTGVYYCNDGPPSGYWGQGTLLTVSS VL: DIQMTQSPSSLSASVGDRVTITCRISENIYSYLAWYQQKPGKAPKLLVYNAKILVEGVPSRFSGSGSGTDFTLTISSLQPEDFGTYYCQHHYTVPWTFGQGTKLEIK"
val = 1280

[[record]]
binder = "AB4-chim (antibody, V domains shown, Parental antibody prior to humanization ('chim'); also called pre-humanized form of AB4) VH: QVQLQQSGAELARPGASVKMSCKASGYTFTSYTMHWIKQRPGQGQEWIGYINPSSTYTHYIKKFKDKATLTADKSSSTAYMQLRSLTSEDSAVYYCSRGELGGFAYWGQGTLVTVSA VL: DVVMTQTPLSLPVSLGDQASISCRSSQSLVHSDGNTYLNWYLQKPGQSPKLLIYKVSNRFSGVPDRFSGSGSGTDFTLKIRRVEAEDLGVYFCSQSTHVPYTFGGGTKLEIK"
val = 19100

[[record]]
binder = "AB4-12 (antibody, V domains shown, Humanized; full-length IgG; see note of AB4-8; also called humanized AB 4-12) VH: QVQLVQSGAEVKKPGASVKMSCKASGYTFTSYTMHWIRQAPGQGQEWIGYINPSSTYTHYIKKFKDRATLTADKSTSTAYMELSSLRSEDTAVYYCSRGELGGFAYWGQGTLVTVSS VL: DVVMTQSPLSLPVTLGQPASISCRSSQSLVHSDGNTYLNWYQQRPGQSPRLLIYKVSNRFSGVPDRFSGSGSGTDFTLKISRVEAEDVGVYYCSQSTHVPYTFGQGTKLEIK"
val = 9690

